The measurements presented in this section are drawn from the supplement of paper PMC6555819.

# Test system: PPARg:RXRa 30nM:10nM, anti-RXR (NR concentration 30 nM, RXRa partner concentration 10 nM)
# Assay: PBM binding z-score (relative to random genomic background probes); higher = stronger binding; sequences stand for … in GC…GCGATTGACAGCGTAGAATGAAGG
Property Measured: PBM binding z-score
API note: the answer field is a bare number with no unit suffix.

Task: // returns reported PBM binding z-score for input `GCTAGTTGGTCAGAAAAAGGTCACACACCGGTCG`
Result: 0.669

Task: // returns reported PBM binding z-score for input `ACAGACAGGTGAGTGAAAGTAACTCAGCTGGACG`
Result: -0.67

Task: // returns reported PBM binding z-score for input `GTAGCAAGGTGAATAGGTCGTTGATGAGTAGGCG`
Result: 0.12

Task: // returns reported PBM binding z-score for input `GCTATTAATTGAAAGGGCAACCGAATGATTCTCG`
Result: -0.0129

Task: // returns reported PBM binding z-score for input `TCTCGGAGCACACGAAAGGTCAGAGCTCGACATC`
Result: 1.5

Task: // returns reported PBM binding z-score for input `GCTAGTTGGTCAGTAACAGGTCACACACCGGTCG`
Result: -0.211

Task: // returns reported PBM binding z-score for input `CCTGGTTGGTCAGGAGGTCACACACCGGATATGA`
Result: 0.453

Task: // returns reported PBM binding z-score for input `GATACAGGCTCAGCTAGAGGCCAGAGTATGGAAA`
Result: -0.505

Task: // returns reported PBM binding z-score for input `AGAATGAGGTTATTAAGAACAGGGAATTGCGGTC`
Result: 0.448

Task: // returns reported PBM binding z-score for input `GCATATAGGTAAGACAAGGTGAAAGTCCGATTGT`
Result: 0.112

Task: // returns reported PBM binding z-score for input `CTACCAAGATGAACAAGGTCGTTGATTACTATTC`
Result: -0.0206

Task: // returns reported PBM binding z-score for input `CGAACTAGGTCATCCAGGACTGTGAATACATTGA`
Result: 4.23

Task: // returns reported PBM binding z-score for input `GCTTACGGGTCAAAGGTTATACCATGAATAGAAT`
Result: 9.29

Task: // returns reported PBM binding z-score for input `CCAGACAGGTGAGAAGGTAACTTAGCCTCGATTA`
Result: -0.0164

Task: // returns reported PBM binding z-score for input `TCTGGCAGGCCAGAGGGTCACTCAAGAGGTACGG`
Result: 0.732

Task: // returns reported PBM binding z-score for input `AGATCGAGGGCAATGAGTTGATAGCACGGGTGGC`
Result: 0.0147

Task: // returns reported PBM binding z-score for input `TCATATAGGTACACAGGTGAAAGTCCGTAAGTTA`
Result: 4.18

Task: // returns reported PBM binding z-score for input `CCTACTGGGCTAAGGTCATTGATCAGTCAAAGCA`
Result: 1.41

Task: // returns reported PBM binding z-score for input `AGTCAAAGTTCGGGACGAGGTAACGTAAAGCACG`
Result: 0.491

Task: // returns reported PBM binding z-score for input `CCGACTGGGGCCTAAGGTTACCATAAGCCAGCCC`
Result: 0.0484

Task: // returns reported PBM binding z-score for input `TCATATAGGGAAAGGTGAAAGTCGAACGATATGA`
Result: 4.47
